experiment_notes: Liver microsomal metabolism assay, human
Type: in vitro ADME
condition_context: pH 7.4; human liver microsomes 0.5 mg/ml, 1 mM NADPH, 37° C.
Method: In the microsomal metabolism assay, the inhibitor was incubated with liver microsomes from different species; the reaction was terminated at different time points; the remaining amount of the inhibitor in the samples at each time point was determined using LC-MS/MS. The percentage of parent drug remaining was calculated, and the hepatic intrinsic clearance CLint(liver) was finally obtained. Testosterone was used as a control in this study to verify the reliability of the experimental system. […]
measurement_label: half-life (min)
Your answer should be a plain number; it is taken to be in min.

Return reported half-life; argument: CC1=C(C(=O)Nc2cccc(C(F)(F)F)c2)C(c2cccc([N+](=O)[O-])c2)C2=C(CC(C)(C)CC2=O)N1 (stereo not shown) [hexahydroquinoline derivative]
55.9
